Data origin: the PETadex activity labels

Substrate: BHET
Recorded Conditions: 120 h
Value Kind: plate clearing

unnamed (protein) MRALLSPTRRRLMTRVSTLSTLPLRRVLCSLALSAVAAAASAQTAPPTSASLNATAGPLAVSSVAISGATGFGGGTIYYPQAAGSYGVIAISPGYGARGSSLAWLARRLATHGFVVAAINTTSTMDSPPSRGPQLMAALDHVVNKADANVRSRADGSRMAVMGHSAGGGGALVAARDNPTLKAAVALTPGSFGNFYSGVRVPTIIFGADGDTITPVTSQARPAYNSIPVTTPKAYGELNNATHLTPVSTNTPIGRYSVAWAKRFVDGDTRYS: not clears the plate
unnamed (protein) MDPSLKRALGLVVALTAAMLFSASASAQNPPPDDDPEPCQTDCDDGGNGGYTRGPDPTDSYLEASSGPYNVATSNVSSFVSGFGGGTIHYPTNTSGSMGGIVVIPGYVSYESSIEWWGPRLASHGFVVMTIDTNSIYDQPGSRKDQIDAALDYLVGQSNASSSAISGMVDGDRLAAVGWSMGGGGTLQLAAEPGRLKAAMPLAPWNSSFNDFDQIQTPTLIFACESDAVAPVSSHASPFYNDIPDATDKAFFEMNNGSHTCANGGNAYDELLGKYGVSWMKLHLDEDQRYEQFLCGPNHESEYQVS: not clears the plate
unnamed (protein) MQVRLSSLCRTALVALGLAWAAATAHAQTIDDASDISLAIGPAPTSSALNALNGPFAVSTSIVVLPVGFGGGTIYYPTQAGKYGVIALCPGFTATSTSLAWLARRLASWGFVVVNMNTVTVFDFPSSRATEMRVALRYATNWSSATVRARIDPNRQAVAGHSMGGGGALIAAVRNPELKAAYALMPWSPTYSPTSMKVPTMLVAADADTIAPAALMVRPYYKLIPATVPKAYAELRWGNHFSPILVNTPIGRYGAAWMKRFVDGDTRYQDFLCGAAHQYYANALVFASYLKNCPY: not clears the plate
unnamed (protein) MNEVEPVNKSFLKKLSIGTGVLLVSMNALSWTPSPAPTPDPTPDPTPCQGDCDFTRGPNPTVSSVESSTGPYSVRTQSIASSVSGFGGGTIHYPTNTSGKMGAIAIAPGFLAPESSIIWWGPRLASHGFVVITIATNSVFDQPSSRGTQIGRALDYVISQSNASNSAISGMVDSTRVGAMGWSMGGGGALRLASGDRLSAAIPLAPWHQGGNSFNQLETPTLIIACENDNVAPVDRHASAFYNAIPSTTDKALLEIDGGAHSCANGDGSNDAVLGKYGISWMKRFIDNDLRYDQFLCGPNHAANSAVSEYRETCDY: not clears the plate
